The reported numbers originate from the supplement of paper PMC11061612.

System: LS-123 (Colorectal Carcinoma)
Assay: combination Emax (second highest fraction inhibited in the dose matrix, 72 h); higher = more inhibition; extreme values may be limits of the assay
MEASUREMENT_NAME: combination Emax
# print the numeric value only

| COMPOUND | EXPERIMENTAL_RESULT |
| --- | --- |
| Cc1c2c(nn1C)CSCc1cc(n(C)n1)CSc1cc(c3ccccc3c1)OCCCc1c(C(=O)O)n(C)c3c-2c(Cl)ccc13 [AZD5991] + Cn1cnc2c(F)c(Nc3ccc(Br)cc3Cl)c(C(=O)NOCCO)cc21 [Selumetinib] (first compound max 1 µM, 7x7, partner max 3 µM) | 0.455 |
| C[C@@H](c1ccc2nccn2c1)n1nnc2ncc(-c3cnn(C)c3)nc21 [Savolitinib] + Cc1c2c(nn1C)CSCc1cc(n(C)n1)CSc1cc(c3ccccc3c1)OCCCc1c(C(=O)O)n(C)c3c-2c(Cl)ccc13 [AZD5991] (first compound max 1 µM, 7x7, partner max 1 µM) | 0.211 |
| Cc1c2c(nn1C)CSCc1cc(n(C)n1)CSc1cc(c3ccccc3c1)OCCCc1c(C(=O)O)n(C)c3c-2c(Cl)ccc13 [AZD5991] + C1CN(CCC1(C(=O)N[C@@H](CCO)C2=CC=C(C=C2)Cl)N)C3=NC=NC4=C3C=CN4 [Capivasertib] (first compound max 1 µM, 7x7, partner max 3 µM) | 0.281 |
| Cc1c2c(nn1C)CSCc1cc(n(C)n1)CSc1cc(c3ccccc3c1)OCCCc1c(C(=O)O)n(C)c3c-2c(Cl)ccc13 [AZD5991] + CN(C)CCCOc1ccc(-c2ccc3ncc4c(c3c2)n(C2CCOCC2)c(=O)n4C)cn1 [AZD0156] (first compound max 1 µM, 7x7, partner max 1 µM) | 0.162 |
| Cc1c2c(nn1C)CSCc1cc(n(C)n1)CSc1cc(c3ccccc3c1)OCCCc1c(C(=O)O)n(C)c3c-2c(Cl)ccc13 [AZD5991] + CC1(C)CCC(CN2CCN(c3ccc(C(=O)NS(=O)(=O)c4ccc(NCC5CCOCC5)c([N+](=O)[O-])c4)c(Oc4cnc5[nH]ccc5c4)c3)CC2)=C(c2ccc(Cl)cc2)C1 [Venetoclax] (first compound max 1 µM, 7x7, partner max 1 µM) | 0.142 |

Problem: Form field: combination Emax recorded for COc1cccc(OCCCN)c1-c1cc(Nc2cnc(C#N)cn2)n[nH]1 [Prexasertib] + O=C(c1cc(Cc2n[nH]c(=O)c3ccccc23)ccc1F)N1CCN(C(=O)C2CC2)CC1 [Olaparib] (first compound max 1 µM, 7x7, partner max 10 µM) with LS-123 (Colorectal Carcinoma) (enter value)
Result: 0.771

Problem: Kindly state the measured combination Emax obtained for Cn1cnc2c(F)c(Nc3ccc(Br)cc3Cl)c(C(=O)NOCCO)cc21 [Selumetinib] + CCN(CCO)CCCOc1ccc2c(Nc3cc(CC(=O)Nc4cccc(F)c4)[nH]n3)ncnc2c1 [AZD2811] (first compound max 10 µM, 7x7, partner max 1 µM) with LS-123 (Colorectal Carcinoma).
Result: 0.425

====

Quick list: Bliss excess per entry.
Test system: TGBC1TKB (Biliary Tract Carcinoma);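 further: after 72 h of two-drug dosing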
Experiment: Bliss excess, mean over the matrix (fraction); higher = more synergy
Would you mind answering with just the numeric figure?

| COMPOUND | EXPERIMENTAL_RESULT |
| --- | --- |
| CN(CCO)CC[C@H](CSc1ccccc1)Nc1ccc(S(=O)(=O)NC(=O)c2ccc(N3CCC([C@@H](O)c4ccccc4-c4ccc(Cl)cc4)CC3)cc2)cc1S(=O)(=O)C(F)(F)F [AZD4320] + Cn1cnc2c(F)c(Nc3ccc(Br)cc3Cl)c(C(=O)NOCCO)cc21 [Selumetinib] (first compound max 1 µM, 7x7, partner max 3 µM) | -0.012 |

Proceeding to the next compound to report its Bliss excess.
Problem: Any idea what its Bliss excess is? The compound is CC1(C)CCC(CN2CCN(c3ccc(C(=O)NS(=O)(=O)c4ccc(NCC5CCOCC5)c([N+](=O)[O-])c4)c(Oc4cnc5[nH]ccc5c4)c3)CC2)=C(c2ccc(Cl)cc2)C1 [Venetoclax] + CS(=O)(=O)CCNCc1ccc(-c2ccc3ncnc(Nc4ccc(OCc5cccc(F)c5)c(Cl)c4)c3c2)o1 [Lapatinib] (first compound max 1 µM, 7x7, partner max 10 µM)
Result: -0.0308

====

System: OE21 (Esophageal Squamous Cell Carcinoma)
Test: combination Emax (second highest fraction inhibited in the dose matrix, 72 h); higher = more inhibition; extreme values may be limits of the assay
Each entry below carries its reported combination Emax.
Give a plain numeric answer without units written out.

Solved entries:
| MOLECULE | combination Emax |
| --- | --- |
| C=CCn1c(=O)c2cnc(Nc3ccc(N4CCN(C)CC4)cc3)nc2n1-c1cccc(C(C)(C)O)n1 [AZD1775] + O=C(c1cc(Cc2n[nH]c(=O)c3ccccc23)ccc1F)N1CCN(C(=O)C2CC2)CC1 [Olaparib] (first compound max 1 µM, partner max 10 µM) | 0.498 |
| CN(CCO)CC[C@H](CSc1ccccc1)Nc1ccc(S(=O)(=O)NC(=O)c2ccc(N3CCC([C@@H](O)c4ccccc4-c4ccc(Cl)cc4)CC3)cc2)cc1S(=O)(=O)C(F)(F)F [AZD4320] + C[C@@H](Nc1cc(F)cc(F)c1)c1cc(C(=O)N(C)C)cc2c(=O)cc(N3CCOCC3)oc12 [AZD8186] (first compound max 1 µM, 7x7, partner max 3 µM) | 0.216 |

// switching to the query molecule
Problem: Need combination Emax of Cc1cc2ncnn2cc1Nc1ncc2c(n1)n(C1CCOCC1)c(=O)n2C [AZD7648] + O=C(c1cc(Cc2n[nH]c(=O)c3ccccc23)ccc1F)N1CCN(C(=O)C2CC2)CC1 [Olaparib] (first compound max 10 µM, 7x7, partner max 10 µM) , thanks.
Result: 0.354

====

System: HeLa (Cervical Carcinoma)
Experiment: combination Emax (second highest fraction inhibited in the dose matrix, 72 h); higher = more inhibition; extreme values may be limits of the assay
Quick reference for combination Emax among some molecules
Field format: numeric only.

// known answers, use as guide
| MOLECULE | SYSTEM | MEASUREMENT_NAME | EXPERIMENTAL_RESULT |
| --- | --- | --- | --- |
| COc1cc2ncnc(Nc3ccc(F)c(Cl)c3)c2cc1OCCCN1CCOCC1 [Gefitinib] + CC(C)n1c(=O)n(C)c2cnc3cc(F)c(-c4ccc(OCCCN5CCCCC5)nc4)cc3c21 [AZD1390] (first compound max 10 µM, 7x7, partner max 0.3 µM) | HeLa (Cervical Carcinoma) | combination Emax | 0.0627 |
| CC1(C)CCC(CN2CCN(c3ccc(C(=O)NS(=O)(=O)c4ccc(NCC5CCOCC5)c([N+](=O)[O-])c4)c(Oc4cnc5[nH]ccc5c4)c3)CC2)=C(c2ccc(Cl)cc2)C1 [Venetoclax] + Cn1cnc2c(F)c(Nc3ccc(Br)cc3Cl)c(C(=O)NOCCO)cc21 [Selumetinib] (first compound max 1 µM, 7x7, partner max 3 µM) | HeLa (Cervical Carcinoma) | combination Emax | 0.103 |

Problem: Form field: reported combination Emax of C[C@@H](c1ccc2nccn2c1)n1nnc2ncc(-c3cnn(C)c3)nc21 [Savolitinib] + CC1(C)CCC(CN2CCN(c3ccc(C(=O)NS(=O)(=O)c4ccc(NCC5CCOCC5)c([N+](=O)[O-])c4)c(Oc4cnc5[nH]ccc5c4)c3)CC2)=C(c2ccc(Cl)cc2)C1 [Venetoclax] (first compound max 1 µM, 7x7, partner max 1 µM)
Result: 0.147

====

System: ESS-1 (Other Solid Carcinomas)
Test: combination Emax (second highest fraction inhibited in the dose matrix, 72 h); higher = more inhibition; extreme values may be limits of the assay
MEASUREMENT_NAME: combination Emax
Lab note: record just the number, no unit beside it.

The examples below pair each entry with its known result.
| MOLECULE | MEASUREMENT_NAME | EXPERIMENTAL_RESULT |
| --- | --- | --- |
| COc1cc2c(cc1OCCCCCOc1cc3c(cc1OC)C(=O)N1C=C(C)C[C@H]1C=N3)N=C[C@@H]1CC(C)=CN1C2=O [SG3199] + O=C(c1cc(Cc2n[nH]c(=O)c3ccccc23)ccc1F)N1CCN(C(=O)C2CC2)CC1 [Olaparib] (first compound max 0.001 µM, 7x7, partner max 10 µM) | combination Emax | 0.346 |
| Cc1cc2ncnn2cc1Nc1ncc2c(n1)n(C1CCOCC1)c(=O)n2C [AZD7648] + COc1cc([C@@H]2c3cc4c(cc3[C@@H](O[C@@H]3O[C@@H]5CO[C@@H](C)O[C@H]5[C@H](O)[C@H]3O)[C@H]3COC(=O)[C@H]23)OCO4)cc(OC)c1O [Etoposide] (first compound max 10 µM, 7x7, partner max 10 µM) | combination Emax | 1 |

Next up:
Problem: Please report the recorded combination Emax for CN(CCO)CC[C@H](CSc1ccccc1)Nc1ccc(S(=O)(=O)NC(=O)c2ccc(N3CCC([C@@H](O)c4ccccc4-c4ccc(Cl)cc4)CC3)cc2)cc1S(=O)(=O)C(F)(F)F [AZD4320] + Cc1cc2ncnn2cc1Nc1ncc2c(n1)n(C1CCOCC1)c(=O)n2C [AZD7648] (first compound max 1 µM, 7x7, partner max 10 µM) .
Result: 0.502
